molecular target: CD74 (human), P04233; assay: cell-based or functional assay
Sequence (P04233 whole entry): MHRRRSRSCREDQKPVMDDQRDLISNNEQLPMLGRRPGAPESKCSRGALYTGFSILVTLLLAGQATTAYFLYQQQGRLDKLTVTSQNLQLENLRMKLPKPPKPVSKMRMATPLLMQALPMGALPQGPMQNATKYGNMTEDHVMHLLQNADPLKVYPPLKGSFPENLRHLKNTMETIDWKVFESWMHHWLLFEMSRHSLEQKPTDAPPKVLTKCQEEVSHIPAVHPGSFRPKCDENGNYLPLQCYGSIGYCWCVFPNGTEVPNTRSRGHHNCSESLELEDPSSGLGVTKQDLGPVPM

Binder	cell killing Span, SU-DHL-6 (NHL) cells
Conjugate A (anti-CD74 IgG-DBCO-PEG4-maytansine conjugate) (antibody, V domains shown, here or on the partner: para-azidomethyl-L-phenylalanine (pAMF, residue 30) at heavy chain EU position 404 (constant region, outside SEQ ID NO 236), linked to DBCO-PEG4-maytansine) VH: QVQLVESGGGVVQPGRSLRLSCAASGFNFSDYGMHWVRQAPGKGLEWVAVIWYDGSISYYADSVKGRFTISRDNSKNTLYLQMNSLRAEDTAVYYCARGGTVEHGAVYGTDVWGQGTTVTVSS VL: DIQMTQSPSSVSASVGDRVTITCRASQGIGSWLAWYQQKPGKAPKLLIYAADRLQSGVPSRFSGSGSGTDFTLTISSLQPEDFATYYCQQYHTYPLTFGGGTKVEIK	98%
Conjugate B (anti-CD74 IgG-PEG4-maytansine conjugate) (antibody, V domains shown, here or on the partner: modified amino acid residue 30 (pAMF) according to Example 2, position not stated for this conjugate, linked to a PEG4-maytansine linker-payload) VH: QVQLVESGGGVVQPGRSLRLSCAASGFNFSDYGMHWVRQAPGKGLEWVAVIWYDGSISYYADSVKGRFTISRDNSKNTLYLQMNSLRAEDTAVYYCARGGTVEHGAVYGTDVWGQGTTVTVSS VL: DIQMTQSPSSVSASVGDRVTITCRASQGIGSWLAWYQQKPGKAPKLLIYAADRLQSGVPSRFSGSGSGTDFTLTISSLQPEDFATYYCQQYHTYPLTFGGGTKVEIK	98%
Conjugate F (anti-CD74 IgG-PEG4-MMAE conjugate) (antibody, V domains shown, here or on the partner: modified amino acid residue 30 (pAMF) according to Example 2, position not stated for this conjugate, linked to PEG4-MMAE) VH: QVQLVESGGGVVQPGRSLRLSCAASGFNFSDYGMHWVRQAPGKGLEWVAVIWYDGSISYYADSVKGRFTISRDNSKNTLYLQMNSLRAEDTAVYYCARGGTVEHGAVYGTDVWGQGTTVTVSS VL: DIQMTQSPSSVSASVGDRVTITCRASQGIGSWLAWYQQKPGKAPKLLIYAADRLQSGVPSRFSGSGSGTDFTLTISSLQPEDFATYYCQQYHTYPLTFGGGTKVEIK	97%
Conjugate E (anti-CD74 IgG-PEG4-MMAF conjugate) (antibody, V domains shown, here or on the partner: modified amino acid residue 30 (pAMF) according to Example 2, position not stated for this conjugate, linked to PEG4-MMAF) VH: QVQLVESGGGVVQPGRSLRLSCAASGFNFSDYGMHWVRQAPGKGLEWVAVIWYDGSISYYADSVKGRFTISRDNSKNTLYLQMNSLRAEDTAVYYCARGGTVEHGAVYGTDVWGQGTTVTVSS VL: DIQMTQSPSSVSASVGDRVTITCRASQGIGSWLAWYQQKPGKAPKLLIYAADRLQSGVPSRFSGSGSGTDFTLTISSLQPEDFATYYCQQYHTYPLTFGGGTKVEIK	98%
Conjugate C (anti-CD74 IgG-val-cit-PAB-hemiasterlin conjugate) (antibody, V domains shown, here or on the partner: modified amino acid residue 30 (pAMF) according to Example 2, position not stated for this conjugate, linked to val-cit-PAB-hemiasterlin) VH: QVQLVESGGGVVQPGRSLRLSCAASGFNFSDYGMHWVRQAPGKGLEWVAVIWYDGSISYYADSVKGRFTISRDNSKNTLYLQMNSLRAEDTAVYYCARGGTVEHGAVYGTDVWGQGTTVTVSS VL: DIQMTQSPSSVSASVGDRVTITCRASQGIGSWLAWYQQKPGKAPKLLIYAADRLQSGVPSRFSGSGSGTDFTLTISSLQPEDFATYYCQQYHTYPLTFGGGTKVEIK	97%

Data provenance: patent US20200207859A1
